# selectivity ratio values compiled below
# protocol.notes: Selectivity index, ratio of IC50 for African green monkey Vero cells to IC50 for chloroquine-resistant Plasmodium falciparum W2
# Format: toxicity, cell-based
# setup.conditions: read-out: Ratio IC50

structure.smiles.string	selectivity ratio
Fc1ccc(Nc2ccnc(NCCNc3ccnc4cc(Cl)ccc34)n2)cc1	> 2
Clc1ccc2c(NCCNc3nccc(Nc4ccc(Br)cc4)n3)ccnc2c1	> 147
Fc1ccc(Nc2ccnc(NCCCCNc3ccnc4cc(Cl)ccc34)n2)cc1	> 3.43
Clc1ccc2c(NCCNc3nccc(Nc4ccccc4)n3)ccnc2c1	> 13.1
Clc1ccc2c(NCCCNc3nccc(Nc4ccccc4)n3)ccnc2c1	89.2
COc1ccc(Nc2ccnc(NCCNc3ccnc4cc(Cl)ccc34)n2)cc1	> 83

###

# System: Plasmodium falciparum
# protocol.notes: Antimalarial activity against chloroquine-sensitive Plasmodium falciparum D6 assessed as inhibition of parasite growth after 72 hrs by parasite LDH release assay
# Format: functional, organism-based
# setup.conditions: D6, 72 h
pIC50: −log10 of the molar value.
test.readout: pIC50

structure.smiles.string	test.readout	endpoint.result
Clc1ccc2c(NCCCCNc3nccc(Nc4ccc(Br)cc4)n3)ccnc2c1	pIC50	7.33
Clc1ccc2c(NCCCNc3nccc(Nc4ccc(Br)cc4)n3)ccnc2c1	pIC50	7.31
COc1ccc(Nc2ccnc(NCCNc3ccnc4cc(Cl)ccc34)n2)cc1	pIC50	7.40

###

# System: Vero
# protocol.notes: Cytotoxicity against African green monkey Vero cells after 72 hrs by neutral red assay
# Format: cell-based, Chlorocebus sabaeus
# setup.conditions: Chlorocebus sabaeus, Vero, 48 h; in the assay text read “after 48 hrs” for “after 72 hrs”; read-out: IC50

structure.smiles.string	IC50
Clc1ccc(Nc2ccnc(NCCNc3ccnc4cc(Cl)ccc34)n2)cc1	15.8 µM
Clc1ccc(Nc2ccnc(NCCCCNc3ccnc4cc(Cl)ccc34)n2)cc1	11 µM
COc1ccc(Nc2ccnc(NCCCCNc3ccnc4cc(Cl)ccc34)n2)cc1	11.1 µM
Cc1ccc(Nc2ccnc(NCCNc3ccnc4cc(Cl)ccc34)n2)cc1	13.6 µM

The origin of these recorded values is ChEMBL document CHEMBL3351898.
